biological target: gEgI WT: HSV2 gEgI heterodimer comprising gE and gI wildtype ectodomains (HSV2, UniProt P89475 21-416; P06764 21-256); assay: SPR binning; gEgI captured by mAb 24
endpoint-label: RU (RU)
# number only, unit RU dropped from output

For the binder shown here, mAb clone 20 (antibody, V domains shown) VH: QVQLQQSGAELVRPGTSVKVSCKASGYAFTNYLIEWVKQRPGQGLEWIGVINPGSGGTNYNEKFKGKATLTADKSSSTAYMQLSSLTSDDSAVYFCARSHYGNYYAMDYWGQGTSVTVSS VL: NIVLTQSPASLAVSLGQRATISCRASESVDSYGNSFMHWYQQKPGQPPKLLIYLASNLESGVPARFSGSGSRTDFTLTIDPVEADDAATYYCQQNNEDPWTFGGGTKLEIK , give the reported RU.
7.3
